- system tested: EphrinB2-EphB1 (Homo sapiens, UniProt P54762)
- Construct: soluble human EphB1-His, EphB2-His, and EphB4-His ectodomains; commercially available human EphrinB1-Fc (EB1), EphrinB2-Fc (EB2), and EphrinB3-Fc (EB3) ectodomain proteins; purchased
- Sequence (P54762 18-540 limits assumed): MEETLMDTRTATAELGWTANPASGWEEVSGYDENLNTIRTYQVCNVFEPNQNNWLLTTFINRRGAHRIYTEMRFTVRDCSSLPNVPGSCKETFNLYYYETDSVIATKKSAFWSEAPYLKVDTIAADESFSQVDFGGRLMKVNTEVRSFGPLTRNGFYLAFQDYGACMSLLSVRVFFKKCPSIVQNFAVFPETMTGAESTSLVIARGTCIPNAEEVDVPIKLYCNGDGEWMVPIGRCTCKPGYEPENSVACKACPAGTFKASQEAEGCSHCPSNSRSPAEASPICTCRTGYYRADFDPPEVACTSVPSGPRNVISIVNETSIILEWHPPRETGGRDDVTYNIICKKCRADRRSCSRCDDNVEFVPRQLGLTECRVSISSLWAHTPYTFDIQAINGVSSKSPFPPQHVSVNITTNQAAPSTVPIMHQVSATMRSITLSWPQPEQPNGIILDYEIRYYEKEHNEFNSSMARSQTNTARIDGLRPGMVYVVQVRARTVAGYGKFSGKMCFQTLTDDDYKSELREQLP
- experiment description: Octet 80 sec association/500 sec dissociation, immobilized human EphrinB2-Fc binding to soluble human EphB1-His
- condition parameters: at 3.2 μM and 580 seconds; immobilized human EphrinB2; 25 nM soluble human EphB1
Counter-ions that a name gives are not always drawn.
metric: EphB1 Inhibition Percent, Inhibition of Association-Dissociation

| compound | system tested | readout value |
| --- | --- | --- |
| COCc1cc(CN2CCN(C)CC2)c(O)c2ncccc12 [Compound 77, reference compound] | EphrinB2-EphB1 (Homo sapiens, UniProt P54762) | 35.0% |
| Oc1ccc(CN2CCN(c3ccc(F)cc3F)CC2)c2cccnc12 [Compound 62] | EphrinB2-EphB1 (Homo sapiens, UniProt P54762) | 14.7% |
| Oc1ccc(CN2CCN(c3ccc(C(F)(F)F)cc3)CC2)c2cccnc12 [Compound 103] | EphrinB2-EphB1 (Homo sapiens, UniProt P54762) | 33.8% |
| Cc1ccc2c(CN3CCOCC3)cc(Br)c(O)c2n1 [Compound 57] | EphrinB2-EphB1 (Homo sapiens, UniProt P54762) | 15.3% |
| COc1ccccc1N1CCN(Cc2cc(I)c(O)c3ncccc23)CC1 [Compound 71-A, dihydrochloride] | EphrinB2-EphB1 (Homo sapiens, UniProt P54762) | 52.3% |
| O=[N+]([O-])c1ccc(N2CCN(Cc3ccc(O)c4ncccc34)CC2)cc1 [Compound 38] | EphrinB2-EphB1 (Homo sapiens, UniProt P54762) | 43.2% |

====

- system tested: EphB2-EphrinA5 (Mus musculus)
- Sequence (P54763 19-543 limits assumed): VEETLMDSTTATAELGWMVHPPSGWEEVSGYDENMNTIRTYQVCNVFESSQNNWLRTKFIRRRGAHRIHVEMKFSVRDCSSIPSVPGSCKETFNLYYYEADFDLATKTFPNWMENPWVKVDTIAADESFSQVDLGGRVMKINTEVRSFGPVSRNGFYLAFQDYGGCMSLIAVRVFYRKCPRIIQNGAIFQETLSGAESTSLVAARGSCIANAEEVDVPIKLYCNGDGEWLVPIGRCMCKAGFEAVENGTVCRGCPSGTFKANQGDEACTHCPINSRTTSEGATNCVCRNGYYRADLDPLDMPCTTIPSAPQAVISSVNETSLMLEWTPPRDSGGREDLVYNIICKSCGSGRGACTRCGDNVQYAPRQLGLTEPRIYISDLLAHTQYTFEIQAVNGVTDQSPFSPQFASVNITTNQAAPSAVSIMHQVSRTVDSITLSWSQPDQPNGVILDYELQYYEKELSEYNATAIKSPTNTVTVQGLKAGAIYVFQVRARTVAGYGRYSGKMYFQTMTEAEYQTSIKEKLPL
- experiment description: Octet, immobilized EphB2 binding to human EphrinA5
- condition parameters: mEphB2-hEphrinA5; immobilized mouse EphB2; 50 nM soluble human EphrinA5; dissociation; relative; read-out: Relative Dissociation IC50

| compound | comparator | IC50, nM |
| --- | --- | --- |
| O=S1(=O)CCN(Cc2ccc(O)c3ncccc23)CC1 [Compound 15] | > | 1000 |
| Oc1c(Cl)cc(CN2CCOCC2)c2cccnc12 [Compound 4] | < | 1000 |
| Oc1ccc(CN2CCN(Cc3ccc(C(F)(F)F)cc3)CC2)c2cccnc12 [Compound 48] | = | 1000 |
| Oc1c(I)cc(CN2CCOCC2)c2cccnc12 [Compound 8] | = | 80 |
| O=[N+]([O-])c1cc(CN2CCOCC2)c2cccnc2c1O [Compound 10] | = | 100000 |

====

- system tested: EphrinB2-EphB2 (Homo sapiens)
- Construct: soluble human EphB1-His, EphB2-His, and EphB4-His ectodomains; commercially available human EphrinB1-Fc (EB1), EphrinB2-Fc (EB2), and EphrinB3-Fc (EB3) ectodomain proteins; purchased
- Sequence (P29323 19-543 limits assumed): as the sequence (P54763 19-543 limits assumed) above, with L104S, N154S, K520Q counted along it
- experiment description: Octet tetramerization inhibition, immobilized human EphrinB2 binding to 50 nM soluble human EphB2
- condition parameters: Absolute Association IC50 (300 sec), Table A, EphrinB2-EphB2
Please use the following IC50 ranges when assigning a class: 0: < 900 nM; 1: ≥ 900 nM and < 2000 nM; 2: ≥ 2000 nM

| compound | assigned class |
| --- | --- |
| Cc1ccc2c(CN3CCN(c4ccc(Br)cc4)CC3)ccc(O)c2n1 [Compound 60] | 2 |
| O=S1(=O)CCN(Cc2cc(Br)c(O)c3ncccc23)CC1 | 1 |
| COc1ccc(N2CCN(Cc3cc(Br)c(O)c4ncccc34)CC2)cc1 | 2 |
| Cc1ccc2c(CN3CCOCC3)cc(Br)c(O)c2n1 | 2 |
| O=C(Cc1ccccc1)Nc1ccc(N2CCN(Cc3cc(Br)c(O)c4ncccc34)CC2)cc1 | 2 |
| Oc1ccc(CN2CCN(c3ccc(Br)cn3)CC2)c2cccnc12 [Compound 33] | 2 |
| Oc1c(Br)cc(CN2CCN(c3ccc(Br)cc3)CC2)c2cccnc12 | 0 |
| COc1ccccc1N1CCN(Cc2cc(I)c(O)c3ncccc23)CC1 | 0 |
| Oc1c(Br)cc(CN2CCN(Cc3ccc(Br)cc3)CC2)c2cccnc12 [Compound 45] | 0 |
| O=S1(=O)CCN(Cc2cc(I)c(O)c3ncccc23)CC1 | 1 |
| Oc1c(Br)cc(CN2CCOCC2)c2cccnc12 | 1 |
| COc1ccccc1N1CCN(Cc2cc(Br)c(O)c3ncccc23)CC1 | 1 |
| COc1ccc(N2CCN(Cc3cc(I)c(O)c4ncccc34)CC2)cc1 | 0 |
| O=[N+]([O-])c1ccc(N2CCN(Cc3ccc(O)c4ncccc34)CC2)cc1 | 2 |
| Oc1ccc(CN2CCOCC2)c2cccnc12 [Compound 2] | 2 |
| O=[N+]([O-])c1cc(CN2CCS(=O)(=O)CC2)c2cccnc2c1O [Compound 21] | 1 |
| COc1ccc(N2CCN(Cc3ccc(O)c4ncccc34)CC2)cc1 | 2 |
| Oc1c(Cl)cc(CN2CCOCC2)c2cccnc12 [Compound 3] | 2 |
| OCc1ccc2c(CN3CCOCC3)cc(Br)c(O)c2n1 | 2 |
| Oc1c(I)cc(CN2CCOCC2)c2cccnc12 | 1 |

====

- system tested: EphrinB2-EphB2 (Homo sapiens)
- Construct: soluble human EphB1-His, EphB2-His, and EphB4-His ectodomains; commercially available human EphrinB1-Fc (EB1), EphrinB2-Fc (EB2), and EphrinB3-Fc (EB3) ectodomain proteins; purchased
- experiment description: Octet 80 sec association/500 sec dissociation, immobilized human EphrinB2-Fc binding to soluble human EphB2-His
- condition parameters: EphB2; 25 nM EphB2; 3.2 μM compound; A20-I as max control; 0* = less than 0, no inhibition; read-out: % Inhibition: Association + Dissociation (160 sec)
# reported inhibition at 3.2 µM; entries follow

| smiles notation | unit name | inhibition at 3.2 µM |
| --- | --- | --- |
| COc1ccc2[nH]cc(C(=O)N3CCOCC3)c2c1 | % | 1.3 |
| COc1ccccc1N1CCN(Cc2cc(Br)c(O)c3ncccc23)CC1 | % | 73 |
| Oc1c(Br)cc(CN2CCOCC2)c2cccnc12 | % | 75.7 |
| COc1ccc2[nH]cc(C(=O)N3CCN(c4ccccc4OC)CC3)c2c1 | % | 0 |
| Oc1c(Br)cc(CN2CCN(Cc3ccc(Br)cc3)CC2)c2cccnc12 | % | 77.1 |
| O=S1(=O)CCN(Cc2cc(Br)c(O)c3ncccc23)CC1 | % | 74.5 |
| O=C(Cc1ccccc1)Nc1ccc(N2CCN(Cc3ccc(O)c4ncccc34)CC2)cc1 | % | 78.8 |
| OCc1ccc2c(CN3CCOCC3)cc(Br)c(O)c2n1 | % | 68.4 |
| Oc1ccc(CN2CCN(Cc3ccc(C(F)(F)F)cc3)CC2)c2cccnc12 | % | 46.2 |
| Oc1ccc(CN2CCN(Cc3ccc(Br)cc3)CC2)c2cccnc12 | % | 56.3 |
| O=[N+]([O-])c1cc(CN2CCS(=O)(=O)CC2)c2cccnc2c1O | % | 51.7 |
| Oc1c(Cl)cc(CN2CCOCC2)c2cccnc12 | % | 78.1 |
| Oc1ccc(CN2CCN(c3ccc(Br)cn3)CC2)c2cccnc12 | % | 81.6 |
| Oc1c(I)cc(CN2CCOCC2)c2cccnc12 | % | 75.3 |
| COc1ccccc1N1CCN(Cc2cc(I)c(O)c3ncccc23)CC1 | % | 73.2 |
| Oc1ccc(CN2CCN(Cc3ccccc3)CC2)c2cccnc12 | % | 25.3 |

====

- system tested: EphrinB2-EphB1 (Homo sapiens)
- Construct: soluble human EphB1-His, EphB2-His, and EphB4-His ectodomains; commercially available human EphrinB1-Fc (EB1), EphrinB2-Fc (EB2), and EphrinB3-Fc (EB3) ectodomain proteins; purchased
- experiment description: Octet, immobilized human EphrinB2 binding to 50 nM soluble human EphB1
- condition parameters: Table B, EphrinB2-EphB1; read-out: Relative Association IC50 (300 sec)
pIC50: −log10 of the molar value.

| smiles notation | system tested | pIC50 |
| --- | --- | --- |
| Oc1c(I)cc(CN2CCOCC2)c2cccnc12 | EphrinB2-EphB1 (Homo sapiens) | 5.94 |

====

- system tested: UniProtKB P54763
- experiment description: Octet, immobilized mouse EphB2 binding to mouse EphrinB2
- condition parameters: Relative Association IC50, mEphB2-mEphrinB2; immobilized mouse EphB2; 50 nM soluble mouse EphrinB2; association; relative
Hi! Could you tag entries with IC50 below 10 µM as y, and those at or above as n? Much appreciated.

| smiles notation | assigned class |
| --- | --- |
| Oc1ccc(CN2CCN(Cc3ccc(C(F)(F)F)cc3)CC2)c2cccnc12 | n |
| Oc1ccc(CN2CCOCC2)c2cccnc12 | n |
| O=S1(=O)CCN(Cc2ccc(O)c3ncccc23)CC1 | y |
| Oc1c(Cl)cc(CN2CCOCC2)c2cccnc12 | y |
| Oc1c(Br)cc(CN2CCOCC2)c2cccnc12 | y |
| O=[N+]([O-])c1cc(CN2CCOCC2)c2cccnc2c1O | y |
